- subject of test: T1, human α-CGRP 1-37 (WT) (human, C-terminal amide; N-terminal biotin when captured on the SA chip; 125I-labelled in the radioligand assay)
- T1 construct: also called α-human
- T1 peptide: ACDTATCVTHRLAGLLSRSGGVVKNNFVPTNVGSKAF
- protocol description: Biacore, 37°C, Fab over CGRP on SA chip
reported endpoint: Kd (nM)
Value expressed in nM; do not type the unit.

Example binders with recorded Kd:
binder | Kd, nM
G1 variant M72 Fab (Fab, V domains shown, Fab; constant domains as m1) VH: EVQLVESGGGLVQPGGSLRLSCAASGFTFSNYWISWVRQAPGKGLEWVAEIRSKSDASATHYAEAVKGRFTISRDNAKNSLYLQMNSLRAEDTAVYYCTVYFDYGLAIQNYWGQGTLVTVSS VL: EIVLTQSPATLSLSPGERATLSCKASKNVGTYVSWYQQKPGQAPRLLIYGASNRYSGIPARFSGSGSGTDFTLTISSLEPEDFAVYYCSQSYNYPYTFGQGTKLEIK | 2.5
G1 variant M62 Fab (Fab, V domains shown, Fab; constant domains as m1) VH: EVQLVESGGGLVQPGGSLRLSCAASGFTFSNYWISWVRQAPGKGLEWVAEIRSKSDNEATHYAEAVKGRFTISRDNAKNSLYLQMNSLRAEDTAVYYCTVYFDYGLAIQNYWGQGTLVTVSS VL: EIVLTQSPATLSLSPGERATLSCKASKNVGTYVSWYQQKPGQAPRLLIYGHSNRYTGIPARFSGSGSGTDFTLTISSLEPEDFAVYYCSQSYNYPYTFGQGTKLEIK | 5.86
G1 variant M24 Fab (Fab, V domains shown, Fab; constant domains as m1) VH: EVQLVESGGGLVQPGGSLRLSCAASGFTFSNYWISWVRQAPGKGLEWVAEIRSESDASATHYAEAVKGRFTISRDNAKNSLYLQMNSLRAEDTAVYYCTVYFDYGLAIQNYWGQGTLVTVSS VL: EIVLTQSPATLSLSPGERATLSCKASKLVTTYVSWYQQKPGQAPRLLIYGASNRYLGIPARFSGSGSGTDFTLTISSLEPEDFAVYYCSQSYNYPYTFGQGTKLEIK | 0.93

Reported Kd, binder G1 variant M53 Fab (Fab, V domains shown, Fab; constant domains as m1; printed L561 read as L56I) VH: EVQLVESGGGLVQPGGSLRLSCAASGFTFSNYWISWVRQAPGKGLEWVAEIRSKSDNGATHYAEAVKGRFTISRDNAKNSLYLQMNSLRAEDTAVYYCTVYFDYGLAIQNYWGQGTLVTVSS VL: EIVLTQSPATLSLSPGERATLSCKASKNVTTYVSWYQQKPGQAPRLLIYGASNRYIGIPARFSGSGSGTDFTLTISSLEPEDFAVYYCSQSYNYPYTFGQGTKLEIK : ____
2.34

Reported Kd, binder G1 variant M10 Fab (Fab, V domains shown, Fab; constant domains as m1) VH: EVQLVESGGGLVQPGGSLRLSCAASGFTFSNYWISWVRQAPGKGLEWVAEIRSESDASATHYAEAVKGRFTISRDNAKNSLYLQMNSLRAEDTAVYYCSSYFDYGLAIQNYWGQGTLVTVSS VL: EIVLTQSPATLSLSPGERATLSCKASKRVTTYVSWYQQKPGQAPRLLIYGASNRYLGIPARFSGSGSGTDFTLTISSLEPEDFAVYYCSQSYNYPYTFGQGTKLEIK : ____
1.08

Reported Kd, binder G1 variant M51 Fab (Fab, V domains shown, Fab; constant domains as m1; printed L561 read as L56I) VH: EVQLVESGGGLVQPGGSLRLSCAASGFTFSNYWISWVRQAPGKGLEWVAEIRSKSDGSATHYAEAVKGRFTISRDNAKNSLYLQMNSLRAEDTAVYYCTVYFDYGLAIQNYWGQGTLVTVSS VL: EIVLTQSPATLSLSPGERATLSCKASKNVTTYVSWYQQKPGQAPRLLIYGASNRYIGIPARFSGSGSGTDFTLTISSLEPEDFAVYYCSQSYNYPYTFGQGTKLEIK : ____
0.82

Reported Kd, binder G1 variant M27 Fab (Fab, V domains shown, Fab; constant domains as m1) VH: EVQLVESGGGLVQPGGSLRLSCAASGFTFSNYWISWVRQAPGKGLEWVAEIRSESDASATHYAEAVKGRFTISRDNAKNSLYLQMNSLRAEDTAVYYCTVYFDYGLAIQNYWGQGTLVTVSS VL: EIVLTQSPATLSLSPGERATLSCKASKNVATYVSWYQQKPGQAPRLLIYGASNRYLGIPARFSGSGSGTDFTLTISSLEPEDFAVYYCSQSYNYPYTFGQGTKLEIK : ____
2.23

Reported Kd, binder G1 variant M44 Fab (Fab, V domains shown, Fab; constant domains as m1) VH: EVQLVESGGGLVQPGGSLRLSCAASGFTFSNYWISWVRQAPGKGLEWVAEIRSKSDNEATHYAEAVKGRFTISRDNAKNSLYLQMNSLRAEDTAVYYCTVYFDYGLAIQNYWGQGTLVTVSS VL: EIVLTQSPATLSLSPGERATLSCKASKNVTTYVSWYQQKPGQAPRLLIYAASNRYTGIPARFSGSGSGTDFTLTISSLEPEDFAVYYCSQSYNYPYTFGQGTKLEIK : ____
2.05

Reported Kd, binder G1 variant M46 Fab (Fab, V domains shown, Fab; constant domains as m1) VH: EVQLVESGGGLVQPGGSLRLSCAASGFTFSNYWISWVRQAPGKGLEWVAEIRSKSDNEATFYAEAVKGRFTISRDNAKNSLYLQMNSLRAEDTAVYYCTVYFDYGLAIQNYWGQGTLVTVSS VL: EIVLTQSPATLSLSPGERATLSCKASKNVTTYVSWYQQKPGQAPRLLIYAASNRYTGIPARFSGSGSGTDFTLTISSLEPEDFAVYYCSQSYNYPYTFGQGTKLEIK : ____
3.37

Reported Kd, binder G1 variant M47 Fab (Fab, V domains shown, Fab; constant domains as m1) VH: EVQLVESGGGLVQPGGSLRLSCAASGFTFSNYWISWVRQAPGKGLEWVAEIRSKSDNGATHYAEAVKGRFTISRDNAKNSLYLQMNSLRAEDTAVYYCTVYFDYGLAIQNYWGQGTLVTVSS VL: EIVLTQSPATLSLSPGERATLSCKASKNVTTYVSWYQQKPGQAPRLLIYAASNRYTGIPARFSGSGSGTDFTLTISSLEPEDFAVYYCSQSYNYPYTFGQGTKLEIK : ____
2.08

From: patent US20190071490A1
